Catalogue of IC50 values
Tested on: L. infantum (MHOM/MA(BE)/67) amastigotes in primary peritoneal mouse macrophages
PROCEDURE SUMMARY: L. infantum intramacrophage amastigote assay (microscopic burden)
Assay type: cell-based, Leishmania infantum
TEST CONTEXT: 5 days, mouse macrophages as host
Description: L. infantum (MHOM/MA(BE)/67 strain) amastigote were incubated for 5 days in 96-well plates with five concentrations of compound (64, 16, 4, 1, and 0.25 μM). Primary peritoneal mouse macrophages were used as host cells. Parasite burdens (i.e., the number of amastigotes per macrophage) were microscopically assessed. The results were expressed as a percentage reduction in parasite burden compared to untreated control wells, and an IC50 was calculated.

C=CCOc1ccc(/C=C/C(=O)/C=C/c2ccc(OCC=C)c(OC)c2)cc1OC : > 64 µM
COc1ccc(C2CC(=O)CC(c3ccc(OC)cc3)[S+]2[O-])cc1 (centres unmarked) [3′d] : ≥ 64 µM

Task item: IC50 of N#Cc1ccc(C2CC(=O)CC(c3ccc(C#N)cc3)S2)cc1 (racemic) on L. infantum (MHOM/MA(BE)/67) amastigotes in primary peritoneal mouse macrophages?
Reply: > 64 µM

Task item: Provide the documented IC50 with L. infantum (MHOM/MA(BE)/67) amastigotes in primary peritoneal mouse macrophages as the system for COc1ccc(C2CC(=O)CC(c3ccc(OC)cc3)S2(=O)=O)cc1 (racemic) [4d]
Reply: ≥ 64 µM

Task item: Record lookup: for L. infantum (MHOM/MA(BE)/67) amastigotes in primary peritoneal mouse macrophages, what IC50 belongs to COc1ccc(C2CC(=O)CC(c3ccc(OC)cc3)[S+]2[O-])cc1 (mixture of isomers) [3d] ?
Reply: ≥ 64 µM

Data provenance is paper PMC11013284.
